Each entry below carries its recorded EC50.
target_of_assay: human Farnesoid X receptor ligand-binding domain/Gal4 DNA binding domain chimera (Homo sapiens (Human))
Sequence (Q96RI1 262-486, change not shown): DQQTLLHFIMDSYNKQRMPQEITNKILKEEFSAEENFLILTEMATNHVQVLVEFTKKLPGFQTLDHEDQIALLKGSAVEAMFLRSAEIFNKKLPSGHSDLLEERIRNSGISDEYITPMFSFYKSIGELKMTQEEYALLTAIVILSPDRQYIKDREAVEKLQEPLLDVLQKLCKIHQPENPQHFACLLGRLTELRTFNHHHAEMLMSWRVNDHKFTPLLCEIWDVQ
Sequence (P04386 1-147 partner): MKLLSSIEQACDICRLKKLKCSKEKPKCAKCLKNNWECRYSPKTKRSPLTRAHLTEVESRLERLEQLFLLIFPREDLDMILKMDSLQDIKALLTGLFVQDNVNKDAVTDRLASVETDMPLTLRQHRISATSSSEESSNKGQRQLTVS
protocol: Cell-based assay of FXR activation (FXR-UAS-bla HEK 293T beta-lactamase reporter)
assay_setup: cellular FXR beta-lactamase reporter assay, FXR-UAS-bla HEK 293T cells, 16 h; pEC50 = -log EC50
// return numeric value only (unit: nM, not printed)

{"columns": ["compound", "unit_of_measurement", "EC50"],
 "data": [
  ["O=C(O)c1cc(OC(F)(F)F)c2nc(N3C[C@@H]4C[C@H]3C[C@H]4OCc3c(C4CCCCC4)noc3C3CC3)sc2c1 [Compound I-22]", "nM", 126],
  ["O=C(O)c1ccc(N2C(=O)[C@@H]3C[C@H]2C[C@H]3OCc2c(-c3c(F)cccc3Cl)noc2C2CC2)cc1 [Compound I-306]", "nM", 2.51]
]}

The compound identified as O=C(NS(=O)(=O)C1CC1)c1ccc(N2C[C@@H]3C[C@H]2C[C@H]3OC(=O)c2c(-c3c(Cl)cccc3Cl)noc2C2(F)CC2)c(F)c1 [Compound I-199] registered its EC50 at 10

====

target_of_assay: human Farnesoid X receptor ligand-binding domain/Gal4 DNA binding domain chimera (Homo sapiens (Human))
protocol: Cell-based assay of FXR activation (FXR-UAS-bla HEK 293T beta-lactamase reporter)
assay_setup: HEK-293T; extent of activation relative to GW4064; cellular FXR beta-lactamase reporter assay; read-out: % Efficacy
Each entry below carries its recorded Emax.
// return numeric value only (unit: %, not printed)

{"columns": ["compound", "numeric_readout"],
 "data": [
  ["CC(CC(=O)O)c1ccc(N2C[C@@H]3C[C@H]2C[C@H]3OCc2c(-c3c(Cl)cccc3Cl)noc2C2CC2)c(F)c1 (stereo partly drawn) [Compound I-152]", 105],
  ["O=C(NS(=O)(=O)C1CC1)c1ccc(N2C[C@@H]3C[C@H]2C[C@H]3OCc2c(-c3c(Cl)cccc3Cl)noc2C2(F)CC2)c(F)c1 [Compound I-197]", 111],
  ["O=C(c1ccc(N2C[C@@H]3C[C@H]2C[C@H]3OCc2c(-c3c(Cl)cccc3Cl)noc2C2CC2)cc1)C(F)(F)F [Compound I-142]", 104],
  ["O=C(O)c1cc(OC2CC2)c2nc(N3C(=O)[C@@H]4C[C@H]3C[C@H]4OCc3c(-c4c(Cl)cccc4Cl)noc3C3CC3)sc2c1 [Compound I-297]", 110],
  ["CC(=O)NCCCCCCCCCCS(=O)(=O)NC(=O)c1ccc(N2C[C@@H]3C[C@H]2C[C@H]3OCc2c(-c3c(Cl)cccc3Cl)noc2C2CC2)c(F)c1 [Compound I-224]", 104],
  ["O=C(NS(=O)(=O)C1CC1)c1ccc(N2C[C@@H]3C[C@H]2C[C@H]3OC(=O)c2c(-c3c(Cl)cccc3Cl)noc2C2CC2)cc1 [Compound I-47]", 106],
  ["O=C(NS(=O)(=O)C1CC1)c1ccc(N2C(=O)[C@@H]3C[C@H]2C[C@H]3OCc2c(-c3c(Cl)cccc3Cl)noc2C2CC2)cc1 [Compound I-337]", 110],
  ["CCc1cc(C(=O)O)cc2sc(N3C[C@@H]4C[C@H]3C[C@H]4OCc3c(-c4c(Cl)cccc4Cl)noc3C3CC3)nc12 [Compound I-246]", 113]
]}

The compound identified as O=C(O)c1ccc(N2C[C@@H]3C[C@H]2C[C@H]3OCc2c(-c3c(F)cccc3Cl)noc2C2CC2)c(F)c1 [Compound I-119] registered its Emax at 104

The compound identified as O=C(O)c1cc([C@H]2CCOC2)c2nc(N3C[C@@H]4C[C@H]3C[C@H]4OCc3c(C4CCC5(CC4)CC5)noc3C3CC3)sc2c1 [Compound I-280] registered its Emax at 105

The compound identified as O=C(NS(=O)(=O)C1CC1)c1ccc(N2C[C@@H]3C[C@H]2C[C@H]3OCc2c(-c3c(Cl)cccc3Cl)noc2C2(F)CC2)nc1 [Compound I-209] registered its Emax at 104

The compound identified as CCc1cc(C(=O)O)ccc1N1C[C@@H]2C[C@H]1C[C@H]2OCc1c(-c2c(Cl)cccc2Cl)noc1C1CC1 [Compound I-109] registered its Emax at 100

All figures here come from patent US10793568B2.
